Target: human CXCR3 (N-delta 4) (Homo sapiens)
Construct: CD8 leader (N); Flag tag; expressed in transfected cells; membrane preparation
Assay: Human CXCR3 (N-delta 4) scintillation proximity assay (SPA), [125I] IP-10 binding to Ba/F3-hCXCR3 membranes
Settings: IC50 rating; [125I] IP-10 displacement, human CXCR3; read-out: IC50
pIC50: −log10 of the molar value.
For each record, write down the corresponding pIC50.

Take a look at these entries with their results.
CC[C@H]1CN(c2ncc(NC3=NS(=O)(=O)N=C3NCC(F)(F)F)cc2Cl)CCN1C1CCN(Cc2ccc(Cl)cc2F)CC1 :: > 7.60
CC[C@H]1CN(c2ncc(NS(N)(=O)=O)cc2Cl)CCN1C1CCN([C@H](C(N)=O)c2ccc(Cl)cc2)CC1 :: 7.00 to 7.60

Switching to the query record.
# pIC50 (molecule: CC[C@H]1CN(c2ncc(-n3cccc3)cc2Cl)CCN1C1CCN(Cc2ccc(Cl)cc2F)CC1 ) is < 7.00

---

Target: human CXCR3 (N-delta 4) (Homo sapiens)
Construct: CD8 leader (N); Flag tag; expressed in transfected cells; membrane preparation
Assay: Human CXCR3 (N-delta 4) scintillation proximity assay (SPA), [125I] IP-10 binding to Ba/F3-hCXCR3 membranes
Conditions: IC50 rating; [125I] IP-10 displacement, human CXCR3; read-out: IC50
MEASURED_METRIC: IC50

CC[C@H]1CN(c2ncc(NC3=NS(=O)(=O)N=C3NC3CC3)cc2Cl)CCN1C1CCN(Cc2ccc(OC(F)(F)F)cc2)CC1 :: < 25 nM

Dear colleague, could you send me IC50 for each of the items below? Thanks.
1. CC[C@H]1CN(c2ncc(NS(N)(=O)=O)cc2Cl)CCN1C1CCN([C@H](C(=O)OC)c2ccc(Cl)cc2)CC1
2. CC[C@H]1CN(c2ncc(NC3=NS(=O)(=O)N=C3NCCN)cc2Cl)CCN1C1CCN(Cc2ccc(Cl)cc2F)CC1
3. C[C@@H]1CN(c2ncc(Nc3c(NCC(F)(F)F)c(=O)c3=O)cc2Cl)[C@@H](C)CN1C1CCN(CCCc2ccccc2)CC1
4. CC[C@H]1CN(c2ncc(Nc3c(NC4CC4)c(=O)c3=O)cc2Cl)CCN1C1CCN(Cc2ccc(Br)cc2F)CC1
5. CC[C@H]1CN(c2ncc(N)cc2Cl)CCN1C1CCN(Cc2ccc(Cl)cc2F)CC1
6. CC[C@H]1CN(c2ncc(Nc3c(NC4CC4)c(=O)c3=O)cc2Cl)CCN1C1CCN(Cc2ccc(Cl)cc2[N+](=O)[O-])CC1
7. CC[C@H]1CN(c2ncc(NC3=NS(=O)(=O)N=C3NCCO)cc2Cl)CCN1C1CCN(Cc2ccc(F)c(F)c2)CC1
8. CC[C@H]1CN(c2ncc(NS(C)(=O)=O)cc2Cl)CCN1C1CCN(Cc2ccc(Cl)cc2NC)CC1

output:
1: < 25 nM; 2: > 100 nM; 3: > 100 nM; 4: < 25 nM; 5: 25 to 100 nM; 6: < 25 nM; 7: 25 to 100 nM; 8: < 25 nM

Give measured IC50 for every item shown.
1. C[C@@H]1CN(c2ncc(Nc3c(NCC(F)(F)F)c(=O)c3=O)cc2Cl)[C@@H](C)CN1C1CCN(Cc2ccc(Cl)cc2F)CC1
2. CSc1ccc(CN2CCC(N3C[C@H](C)N(c4ncc(Nc5c(NCC(F)(F)F)c(=O)c5=O)cc4Cl)C[C@H]3C)CC2)cc1
3. CC[C@H]1CN(c2ncc(Nc3c(N4CCC4)c(=O)c3=O)cc2Cl)CCN1C1CCN(Cc2ccc(Cl)cc2F)CC1
4. C[C@@H]1CN(c2ncc(Nc3c(NCC(F)(F)F)c(=O)c3=O)cc2Cl)[C@@H](C)CN1C1CCN(Cc2ccc(Cl)cc2)CC1
5. CC[C@H]1CN(c2ncc(NS(C)(=O)=O)cc2Cl)CCN1C1CCN(C(C(=O)OC)c2ccc(Cl)cc2)CC1 (some centres unmarked) [Compound 27]

output:
1. < 25 nM
2. > 100 nM
3. < 25 nM
4. < 25 nM
5. 25 to 100 nM

---

Target: human CXCR3 (N-delta 4) (Homo sapiens, UniProt P49682)
Construct: CD8 leader (N); Flag tag; expressed in transfected cells; membrane preparation
Sequence (P49682 5-368 limits assumed): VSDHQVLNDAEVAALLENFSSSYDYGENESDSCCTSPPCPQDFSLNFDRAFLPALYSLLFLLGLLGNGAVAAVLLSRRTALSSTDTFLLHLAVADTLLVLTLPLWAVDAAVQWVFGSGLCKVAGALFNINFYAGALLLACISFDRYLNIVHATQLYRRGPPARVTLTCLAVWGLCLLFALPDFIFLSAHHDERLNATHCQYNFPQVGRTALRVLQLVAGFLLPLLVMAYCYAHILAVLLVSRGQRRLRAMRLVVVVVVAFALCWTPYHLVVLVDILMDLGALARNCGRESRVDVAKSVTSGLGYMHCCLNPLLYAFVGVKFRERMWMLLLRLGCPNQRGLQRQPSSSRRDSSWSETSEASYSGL
Assay: Human CXCR3 (N-delta 4) scintillation proximity assay (SPA), [125I] IP-10 binding to Ba/F3-hCXCR3 membranes
Conditions: IC50 rating; [125I] IP-10 displacement, human CXCR3; read-out: IC50
MEASURED_METRIC: IC50

C[C@H]1CN(c2ncc(N)cc2Cl)CCN1C1CCN(Cc2ccc(Cl)cc2F)CC1 [Compound 224] :: > 100 nM
C[C@H]1CN(c2ncc(NS(C)(=O)=O)cc2Cl)CCN1C1CCN(Cc2ccc(C#N)cc2)CC1 [Compound 53] :: > 100 nM
C[C@H]1CN(c2ncc(NS(C)(=O)=O)cc2Cl)CCN1C1CCN(Cc2ccc(Cl)cc2)CC1 [Compound 32] :: 25 to 100 nM
CC[C@H]1CN(c2ncc(Nc3c(NC4CC4)c(=O)c3=O)cc2Cl)CCN1C1CCN(Cc2ccc(Cl)cc2)CC1 [Compound 70] :: < 25 nM

We next turn to a different compound, shown below.
Record CCNC(=O)Nc1cc(Cl)c(N2CCN(C3CCN(Cc4ccc(Cl)cc4)CC3)[C@@H](CC)C2)c(Cl)c1 [Compound 193] / human CXCR3 (N-delta 4) (Homo sapiens, UniProt P49682), IC50 recorded as > 100 nM
